# System Tested: rat brain kynureninase (Rattus norvegicus)
# Construct: Partial purification of rat brain kynureninase was performed according to Lee et al; from tissue; host or cells: rat brain, partially purified enzyme
# Sequence (P70712 whole entry): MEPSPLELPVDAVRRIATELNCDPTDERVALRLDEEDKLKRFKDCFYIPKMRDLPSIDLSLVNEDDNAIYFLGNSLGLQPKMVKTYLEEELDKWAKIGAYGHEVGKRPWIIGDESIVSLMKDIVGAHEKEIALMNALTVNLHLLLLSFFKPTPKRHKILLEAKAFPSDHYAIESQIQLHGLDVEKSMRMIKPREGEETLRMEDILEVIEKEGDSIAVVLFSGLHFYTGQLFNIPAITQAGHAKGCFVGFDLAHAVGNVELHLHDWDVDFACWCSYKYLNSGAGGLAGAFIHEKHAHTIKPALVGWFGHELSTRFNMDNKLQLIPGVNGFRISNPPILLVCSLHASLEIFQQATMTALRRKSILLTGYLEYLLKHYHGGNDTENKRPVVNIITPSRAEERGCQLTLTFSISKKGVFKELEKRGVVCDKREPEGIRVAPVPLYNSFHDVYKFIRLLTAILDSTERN
# Method Notes: Kynureninase assay in the rat brain
# Assay type: biochemical
# Setup Conditions: rat brain homogenate
Measure: % INHIBITION AT 100 μM Kyn-Ase (%)
Could you give me the number in %? Just the number is fine.

### Prompt Form field: % INHIBITION AT 100 μM Kyn-Ase recorded for N[C@H](CC(=O)c1cccc(C(F)(F)F)c1)C(=O)O (racemic) with rat brain kynureninase (Rattus norvegicus) (enter value)
### Response 67

### Prompt Form field: % INHIBITION AT 100 μM Kyn-Ase recorded for COc1cccc(C(=O)C[C@@H](N)C(=O)O)c1 (racemic) with rat brain kynureninase (Rattus norvegicus) (enter value)
### Response 54

### Prompt Form field: % INHIBITION AT 100 μM Kyn-Ase recorded for N[C@H](CC(=O)c1ccccc1Cl)C(=O)O (racemic) with rat brain kynureninase (Rattus norvegicus) (enter value)
### Response 71

### Prompt Form field: % INHIBITION AT 100 μM Kyn-Ase recorded for N[C@H](CC(=O)c1ccccc1F)C(=O)O (racemic) with rat brain kynureninase (Rattus norvegicus) (enter value)
### Response 52

### Prompt Form field: % INHIBITION AT 100 μM Kyn-Ase recorded for COc1ccc(F)cc1C(=O)C[C@@H](N)C(=O)O (racemic) with rat brain kynureninase (Rattus norvegicus) (enter value)
### Response 81

----------
# System Tested: kynurenine-3-hydroxylase (Rattus norvegicus)
# Construct: Brain was homogenized in ice-cold 0.32 M sucrose and centrifugated at 12000×g; from tissue; host or cells: rat brain homogenate, washed pellet suspended
# Sequence (O88867 whole entry): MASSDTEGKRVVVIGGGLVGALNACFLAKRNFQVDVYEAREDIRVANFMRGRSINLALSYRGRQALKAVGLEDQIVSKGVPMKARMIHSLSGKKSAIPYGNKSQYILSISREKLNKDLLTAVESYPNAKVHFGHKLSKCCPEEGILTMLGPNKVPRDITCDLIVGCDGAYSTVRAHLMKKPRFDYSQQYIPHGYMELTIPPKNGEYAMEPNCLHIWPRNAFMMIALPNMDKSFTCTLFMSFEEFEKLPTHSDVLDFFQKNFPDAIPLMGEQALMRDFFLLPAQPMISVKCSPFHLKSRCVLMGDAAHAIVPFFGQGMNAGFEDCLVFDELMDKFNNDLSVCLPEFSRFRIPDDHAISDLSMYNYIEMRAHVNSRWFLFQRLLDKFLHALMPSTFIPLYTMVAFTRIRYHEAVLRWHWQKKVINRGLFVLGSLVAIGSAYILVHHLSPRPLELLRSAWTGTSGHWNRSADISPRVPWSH
# Method Notes: Kynurenine-3-hydroxylase assay in the rat brain
# Assay type: biochemical
# Setup Conditions: 100 μM; rat brain homogenate; read-out: % INHIBITION AT 100 μM Kyn-3-OH-Ase
Measure: inhibition at 100 µM (%)
Could you give me the number in %? Just the number is fine.

### Prompt Sample Cc1ccccc1C(=O)CC(N)C(=O)O (racemic) — what was its inhibition at 100 µM?
### Response 81

### Prompt Sample COc1ccc(Cl)cc1C(=O)CC(N)C(=O)O (racemic) — what was its inhibition at 100 µM?
### Response 73

### Prompt Sample NC(CC(=O)c1cccc(F)c1)C(=O)O (racemic) — what was its inhibition at 100 µM?
### Response 93

### Prompt Sample NC(CC(=O)c1ccc(Cl)cc1)C(=O)O (racemic) — what was its inhibition at 100 µM?
### Response 85

### Prompt Sample NC(CC(=O)c1ccc(Cl)c(Cl)c1)C(=O)O (racemic) — what was its inhibition at 100 µM?
### Response 99
